# study.system: VIPR2 (Homo sapiens, UniProt P41587)
# Sequence (P41587 24-438): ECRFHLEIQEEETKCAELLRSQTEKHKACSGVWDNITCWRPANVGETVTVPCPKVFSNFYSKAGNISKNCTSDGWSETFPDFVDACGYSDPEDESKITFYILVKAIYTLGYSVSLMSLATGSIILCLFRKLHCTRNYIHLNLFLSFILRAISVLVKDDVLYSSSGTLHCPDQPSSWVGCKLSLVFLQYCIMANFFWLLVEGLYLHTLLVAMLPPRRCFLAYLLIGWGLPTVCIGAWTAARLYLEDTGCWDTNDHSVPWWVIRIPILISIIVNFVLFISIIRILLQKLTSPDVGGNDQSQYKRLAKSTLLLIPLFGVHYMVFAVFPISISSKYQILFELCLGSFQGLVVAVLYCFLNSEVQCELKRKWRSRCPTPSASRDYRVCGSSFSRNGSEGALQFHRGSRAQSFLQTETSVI
# assay.notes: % Activity: inhibition of VIP-induced cAMP elevation and β-arrestin recruitment (Table 2)
# Assay type: cell-based
# Design: expressed in transfected cells; host or cells: HEK293 cells transfected with VIPR2 in pCDNA3.1 (as described)
result.type: % Activity (%)

compound	unit.abbreviation	% Activity
O=C(NC1CCCc2ccccc21)[C@@H](Cc1ccccc1)C[C@H](O)CNS(=O)(=O)c1ccc([N+](=O)[O-])cc1 (stereo partly shown) [Compound B13B]	%	9.0000
CC(=O)c1ccc(S(=O)(=O)NC[C@@H](O)C[C@@H](Cc2ccccc2)C(=O)N[C@H]2c3ccccc3C[C@H]2O)cc1	%	92.35
CCN(CC)C(=O)[C@H](Cc1ccccc1)C[C@H](O)CNS(=O)(=O)c1ccc([N+](=O)[O-])cc1 [Compound B15A]	%	0.7
O=C(CCl)NC[C@@H](O)C[C@@H](Cc1ccccc1)C(=O)N[C@H]1c2ccccc2C[C@H]1O	%	16.55
O=C(NCc1ccccc1)[C@H](Cc1ccccc1)C[C@H](O)CNS(=O)(=O)c1ccc([N+](=O)[O-])cc1	%	10.65

A. O=C(N[C@H]1c2ccccc2C[C@H]1O)[C@H](Cc1ccccc1)C[C@H](O)CNS(=O)(=O)c1cccc([N+](=O)[O-])c1
B. O=C(NC[C@@H](O)C[C@@H](Cc1ccccc1)C(=O)N[C@H]1c2ccccc2C[C@H]1O)c1ccccn1
Select one: A or B . Criterion: greater recorded % Activity. Label of pick, please. A

====

# study.system: VIPR2 (Homo sapiens)
# assay.notes: Inhibition of VIP-induced β-arrestin recruitment (% Activity Arrestin)
# Type: cell-based
# Set-up: expressed in transfected cells; host or cells: HEK293 cells transfected with VIPR2 in pCDNA3.1 (as described)
# run.conditions: 0.5 μM, Batch 3
result.type: inhibition at 0.5 µM (%)

compound.string	unit.abbreviation	inhibition at 0.5 µM
CCCNc1ccc(S(=O)(=O)NC[C@@H](O)C[C@@H](Cc2ccccc2)C(=O)N[C@H]2c3ccccc3C[C@H]2O)cc1	%	4.1
O=C(N[C@H]1c2ccccc2C[C@H]1O)[C@H](Cc1ccccc1)C[C@H](O)CNS(=O)(=O)c1ccc(C(=O)N2CCCCC2)cc1	%	0
CC(C)C(=O)Nc1ccc(S(=O)(=O)NC[C@@H](O)C[C@@H](Cc2ccccc2)C(=O)N[C@H]2c3ccccc3C[C@H]2O)cc1	%	5.3
CC(C)Nc1ccc(S(=O)(=O)NC[C@@H](O)C[C@@H](Cc2ccccc2)C(=O)N[C@H]2c3ccccc3C[C@H]2O)cc1	%	8.1

a. O=C(O)c1ccc(S(=O)(=O)NC[C@@H](O)C[C@@H](Cc2ccccc2)C(=O)N[C@H]2c3ccccc3C[C@H]2O)cc1
b. CC(C)CNc1ccc(S(=O)(=O)NC[C@@H](O)C[C@@H](Cc2ccccc2)C(=O)N[C@H]2c3ccccc3C[C@H]2O)cc1
c. CCN(CC)C(=O)c1ccc(S(=O)(=O)NC[C@@H](O)C[C@@H](Cc2ccccc2)C(=O)N[C@H]2c3ccccc3C[C@H]2O)cc1
Please list these compounds in decreasing order of inhibition at 0.5 µM. List the labels, following the order given in the request. b, a, c

====

# study.system: VIPR2 (Homo sapiens)
# assay.notes: Inhibition of VIP-induced β-arrestin recruitment (% Activity Arrestin)
# Type: cell-based
# Parameters: expressed in transfected cells; host or cells: HEK293 cells transfected with VIPR2 in pCDNA3.1 (as described)
# run.conditions: 1 μM, Batch 3
result.type: inhibition at 1 µM (%)

molecule	result.type	unit.abbreviation	assay.value
CCN(CC)C(=O)c1ccc(S(=O)(=O)NC[C@@H](O)C[C@@H](Cc2ccccc2)C(=O)N[C@H]2c3ccccc3C[C@H]2O)cc1	inhibition at 1 µM	%	3.1
CC(C)Nc1ccc(S(=O)(=O)NC[C@@H](O)C[C@@H](Cc2ccccc2)C(=O)N[C@H]2c3ccccc3C[C@H]2O)cc1	inhibition at 1 µM	%	-2
O=C(O)c1ccc(S(=O)(=O)NC[C@@H](O)C[C@@H](Cc2ccccc2)C(=O)N[C@H]2c3ccccc3C[C@H]2O)cc1	inhibition at 1 µM	%	-1.8

P. CN(C)c1ccc(S(=O)(=O)NC[C@@H](O)C[C@@H](Cc2ccccc2)C(=O)N[C@H]2c3ccccc3C[C@H]2O)cc1
Q. O=C(N[C@H]1c2ccccc2C[C@H]1O)[C@H](Cc1ccccc1)C[C@H](O)CNS(=O)(=O)c1ccc(C(=O)N2CCCCC2)cc1
R. CC(C)C(=O)Nc1ccc(S(=O)(=O)NC[C@@H](O)C[C@@H](Cc2ccccc2)C(=O)N[C@H]2c3ccccc3C[C@H]2O)cc1
S. CCCCNC(=O)c1ccc(S(=O)(=O)NC[C@@H](O)C[C@@H](Cc2ccccc2)C(=O)N[C@H]2c3ccccc3C[C@H]2O)cc1
I would appreciate it if you could sort these 4 molecules by inhibition at 1 µM, starting from the smallest number. List the labels, following the order given in the request. Q, P, S, R

A. O=C(NCc1ccccc1)c1ccc(S(=O)(=O)NC[C@@H](O)C[C@@H](Cc2ccccc2)C(=O)N[C@H]2c3ccccc3C[C@H]2O)cc1
B. Nc1ccc(S(=O)(=O)NC[C@@H](O)C[C@@H](Cc2ccccc2)C(=O)N[C@H]2c3ccccc3C[C@H]2O)cc1
Which value of inhibition at 1 µM is smaller, the one for A or the one for B ? Label of pick, please. B

====

# study.system: VIPR2 (Homo sapiens)
# assay.notes: Inhibition of VIP-induced cAMP elevation (% Activity cAMP)
# Type: cell-based
# Set-up: expressed in transfected cells; host or cells: HEK293 cells transfected with VIPR2 in pCDNA3.1 (as described)
# run.conditions: 0.5 μM, Batch 1
result.type: inhibition at 0.5 µM (%)

a. O=C(NC[C@@H](O)C[C@@H](Cc1ccccc1)C(=O)N[C@H]1c2ccccc2C[C@H]1O)c1ccc2ccccc2c1 [B]
b. N#Cc1ccc(S(=O)(=O)NC[C@@H](O)C[C@@H](Cc2ccccc2)C(=O)N[C@H]2c3ccccc3C[C@H]2O)cc1 [C]
Which value of inhibition at 0.5 µM is smaller, the one for a or the one for b ? Label of pick, please. a

A. O=C(N[C@H]1c2ccccc2C[C@H]1O)[C@H](Cc1ccccc1)C[C@H](O)CNS(=O)(=O)c1cccc([N+](=O)[O-])c1 [L]
B. COc1ccc(S(=O)(=O)NC[C@@H](O)C[C@@H](Cc2ccccc2)C(=O)N[C@H]2c3ccccc3C[C@H]2O)cc1 [E]
Which value of inhibition at 0.5 µM is smaller, the one for A or the one for B ? Label of pick, please. A
(A: 18.4%, B: 33.9%)

====

# study.system: VIPR2 (Homo sapiens, UniProt P41587)
# assay.notes: Inhibition of VIP-induced cAMP elevation (% Activity cAMP)
# Format: cell-based
# Set-up: expressed in transfected cells; host or cells: HEK293 cells transfected with VIPR2 in pCDNA3.1 (as described)
# run.conditions: 5 μM, Batch 1
result.type: inhibition at 5 µM (%)

I. O=C(NC[C@@H](O)C[C@@H](Cc1ccccc1)C(=O)N[C@H]1c2ccccc2C[C@H]1O)C1CC1
II. CC(C)c1cc(C(C)C)c(S(=O)(=O)NC[C@@H](O)C[C@@H](Cc2ccccc2)C(=O)N[C@H]2c3ccccc3C[C@H]2O)c(C(C)C)c1
Which value of inhibition at 5 µM is smaller, the one for I or the one for II ? Label of pick, please. I

P. COc1ccc(S(=O)(=O)NC[C@@H](O)C[C@@H](Cc2ccccc2)C(=O)N[C@H]2c3ccccc3C[C@H]2O)cc1OC
Q. COc1cc(C(=O)NC[C@@H](O)C[C@@H](Cc2ccccc2)C(=O)N[C@H]2c3ccccc3C[C@H]2O)cc(OC)c1OC
R. CC(=O)c1ccc(S(=O)(=O)NC[C@@H](O)C[C@@H](Cc2ccccc2)C(=O)N[C@H]2c3ccccc3C[C@H]2O)cc1
S. CS(=O)(=O)NC[C@@H](O)C[C@@H](Cc1ccccc1)C(=O)N[C@H]1c2ccccc2C[C@H]1O
Please list these molecules in decreasing order of inhibition at 5 µM. List the labels, following the order given in the request. R, P, S, Q
(R: 96%, P: 28.2%, S: 18.5%, Q: 9.3%)

1. CC(C)CS(=O)(=O)NC[C@@H](O)C[C@@H](Cc1ccccc1)C(=O)N[C@H]1c2ccccc2C[C@H]1O
2. CC(C)c1ccc(S(=O)(=O)NC[C@@H](O)C[C@@H](Cc2ccccc2)C(=O)N[C@H]2c3ccccc3C[C@H]2O)cc1
Select one: 1 or 2 . Criterion: greater recorded inhibition at 5 µM. Label of pick, please. 2
(2: 98.2%, 1: 22.2%)

a. O=C(NC[C@@H](O)C[C@@H](Cc1ccccc1)C(=O)N[C@H]1c2ccccc2C[C@H]1O)c1c(Cl)cc(Cl)cc1Cl
b. O=C(N[C@H]1c2ccccc2C[C@H]1O)[C@H](Cc1ccccc1)C[C@H](O)CNS(=O)(=O)c1ccccc1C(F)(F)F
c. Cc1ccc(S(=O)(=O)NC[C@@H](O)C[C@@H](Cc2ccccc2)C(=O)N[C@H]2c3ccccc3C[C@H]2O)cc1
I would appreciate it if you could sort these 3 molecules by inhibition at 5 µM, starting from the smallest number. List the labels, following the order given in the request. a, b, c
(a: 12.3%, b: 24.7%, c: 98.2%)
